Target: full length mouse TREX1 (Mus musculus)
Construct: N-terminally His-Tev tagged full length mouse TREX1; made in house; host or cells: E. coli
Sequence (Q91XB0 whole entry): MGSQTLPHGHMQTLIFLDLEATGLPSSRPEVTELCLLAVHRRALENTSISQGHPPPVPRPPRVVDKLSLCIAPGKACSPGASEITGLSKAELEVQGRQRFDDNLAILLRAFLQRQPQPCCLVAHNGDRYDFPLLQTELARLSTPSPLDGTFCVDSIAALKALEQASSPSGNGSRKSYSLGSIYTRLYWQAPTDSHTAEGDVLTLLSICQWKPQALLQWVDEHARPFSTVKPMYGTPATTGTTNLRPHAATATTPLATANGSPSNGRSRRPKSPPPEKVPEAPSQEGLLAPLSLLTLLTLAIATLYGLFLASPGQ
Test: mTREX1 Biochemical Assay (fluorescence, dsDNA substrate degradation)
Settings: biochemical, read-out: mTREX1 IC50
pIC50: −log10 of the molar value.
We begin with a simple list: items and their reported pIC50.

Here's what some known entries look like.
• CC(c1nc(C(=O)Nc2cnoc2)c(O)c(=O)n1C)C(c1cnn(C)c1)c1ccncc1C#N (single isomer, unassigned) [Example 8 D1E2] = 8.00 to 9.00
• CC(c1nc(C(=O)Nc2cnoc2)c(O)c(=O)n1C)C(c1cnn(C)c1)c1ccc(F)cc1C#N (single isomer, unassigned) [Example 15 D1E1] = 8.00 to 9.00

Inquiry: # lookup: pIC50 of CC(c1nc(C(=O)Nc2cnoc2)c(O)c(=O)n1C)C(c1cnn(CC(C)(C)O)c1)c1ccccc1C#N (single isomer, unassigned) [Example 36 D2E1]
Reply text: < 8.00
